B1: H2-Kb / F5 (parent)
chain 1: GDSVTQTEGLVTLTEGLPVMLNCTYQSTYSPFLFWYVQHLNEAPKLLLKSFTDNKRPEHQGFHATLHKSSSSFHLQKSSAQLSDSALYYCALSPSNMGYKLTFGTGTSLLVDP
chain 2: EAAVTQSPRNKVAVTGGKVTLSCNQTNNHNNMYWYRQDTGHGLRLIHYSYGAGSTEKGDIPDGYKASRPSQENFSLILELATPSQTSVYFCASGDASEQYFGPGTRLTVL
chain 3: not shown
chain 4: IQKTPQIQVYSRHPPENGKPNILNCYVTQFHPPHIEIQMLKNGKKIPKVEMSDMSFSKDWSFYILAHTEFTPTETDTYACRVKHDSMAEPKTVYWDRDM
chain 5: SIINFEKL

- Variants of: B1
- experiment-description: % of reporter cells activated (NFAT-GFP), raw; also: test concentration or dose not given here
- experimental-conditions: with F5; scale: % of reporter cells activated
Measured ratio to parent determines class: range A = under 0.3, range B = from 0.3 up to 0.5, range C = 0.5 and over

Examples with answers:
> print(dat)
   mutation.notation  label.class
1        chain 5 E6V      range A
2        chain 5 I3W      range A
3        chain 5 K7G      range B
4        chain 5 K7A      range C
5        chain 5 E6K      range B

Band for the recorded ratio to parent of chain 5 L8R ? range B

Band for the recorded ratio to parent of chain 5 I2C ? range C

Band for the recorded ratio to parent of chain 5 L8V ? range C

Band for the recorded ratio to parent of chain 5 I3C ? range B

Band for the recorded ratio to parent of chain 5 I3A ? range B

Band for the recorded ratio to parent of chain 5 L8Y ? range C

Band for the recorded ratio to parent of chain 5 N4L ? range B

Band for the recorded ratio to parent of chain 5 I3Q ? range B

Band for the recorded ratio to parent of chain 5 F5W ? range C

Band for the recorded ratio to parent of chain 5 K7T ? range C

Band for the recorded ratio to parent of chain 5 K7E ? range A

Band for the recorded ratio to parent of chain 5 L8G ? range B
